System: SK-LU-1
method-description: relative viability (nuclei count vs DMSO), 5 days (fraction); higher = more cells survive
condition-set: first compound 0.1265 µM
Quick reference: relative viability of the listed items.
Respond numerically, and do not add a unit to the figure.

compound	relative viability
Clc1ccc(Nc2nnc(Cc3ccncc3)c3ccccc23)cc1 [Vatalanib] + C[C@@H](Oc1cc(-c2cnn(C3CCNCC3)c2)cnc1N)c1c(Cl)ccc(F)c1Cl [Crizotinib] (partner 1 µM)	0.898
C[C@@H]1CN(CC(=O)Nc2ccc3c(c2)Cc2cccc(-c4cc(=O)cc(N5CCOCC5)o4)c2S3)C[C@H](C)O1 + CS(=O)(=O)N1CCN(Cc2cc3nc(-c4cccc5[nH]ncc45)nc(N4CCOCC4)c3s2)CC1 [Pictilisib] (partner 1 µM)	0.594
C[C@@H]1CN(CC(=O)Nc2ccc3c(c2)Cc2cccc(-c4cc(=O)cc(N5CCOCC5)o4)c2S3)C[C@H](C)O1 + COc1cccc2cc(-c3nc([C@H]4CC[C@H](C(=O)O)CC4)n4ncnc(N)c34)[nH]c12 [OSI-027] (partner 0.5 µM)	0.4

Exercise: Find the recorded relative viability belonging to COc1cc(N2CCC(C(N)=O)CC2)ccc1Nc1nc(N)c(Cl)c(Nc2ccccc2S(=O)(=O)C(C)C)n1 [HG-5-88-01] + CCNC(=O)c1noc(-c2cc(C(C)C)c(O)cc2O)c1-c1ccc(CN2CCOCC2)cc1 [Luminespib] (partner 0.01 µM) and report it.
Solution: 0.2

###

Tested on: NCI-H661
method-description: relative viability (nuclei count vs DMSO), 5 days (fraction); higher = more cells survive
condition-set: first compound 8 µM
attribute-measured: relative viability
Respond numerically, and do not add a unit to the figure.

Previously resolved entries follow.
molecule	relative viability
CCCCCCCCCCCC1=C(O)C(=O)C=C(O)C1=O [Embelin] + CCNC(=O)c1noc(-c2cc(C(C)C)c(O)cc2O)c1-c1ccc(CN2CCOCC2)cc1 [Luminespib] (partner 0.01 µM)	0.85
CCCCCCCCCCCC1=C(O)C(=O)C=C(O)C1=O [Embelin] + Cc1nc(NC(=O)N2CCC[C@H]2C(N)=O)sc1-c1ccnc(C(C)(C)C(F)(F)F)c1 [Alpelisib] (partner 2 µM)	0.756
CCCCCCCCCCCC1=C(O)C(=O)C=C(O)C1=O [Embelin] + Nc1nc2[nH]cc(CCc3ccc(C(=O)N[C@@H](CCC(=O)O)C(=O)O)cc3)c2c(=O)[nH]1 [Pemetrexed] (partner 0.2 µM)	0.896
CCCCCCCCCCCC1=C(O)C(=O)C=C(O)C1=O [Embelin] + Cc1cc(Nc2cc(N3CCN(C)CC3)nc(Sc3ccc(NC(=O)C4CC4)cc3)n2)n[nH]1 [Tozasertib] (partner 0.1 µM)	0.337
CCCCCCCCCCCC1=C(O)C(=O)C=C(O)C1=O [Embelin] + CS(=O)(=O)N1CCN(Cc2cc3nc(-c4cccc5[nH]ncc45)nc(N4CCOCC4)c3s2)CC1 [Pictilisib] (partner 1 µM)	0.481

// next item, relative viability requested
Exercise: # query: relative viability | item CCCCCCCCCCCC1=C(O)C(=O)C=C(O)C1=O [Embelin] + C[C@]1(O)C[C@@H](c2nc(-c3ccc4ccc(-c5ccccc5)nc4c3)c3c(N)nccn32)C1 [Linsitinib] (partner 1 µM) | system: NCI-H661
Solution: 0.623

###

Quick reference: relative viability of the listed items.
Tested on: HCC-366
method-description: relative viability (nuclei count vs DMSO), 5 days (fraction); higher = more cells survive
condition-set: first compound 1.265 µM

molecule	relative viability
COc1cc(N2CCC(C(N)=O)CC2)ccc1Nc1nc(N)c(Cl)c(Nc2ccccc2S(=O)(=O)C(C)C)n1 [HG-5-88-01] + CC(C)C[C@H](NC(=O)[C@H](Cc1ccccc1)NC(=O)c1cnccn1)B(O)O [Bortezomib] (partner 0.002 µM)	1.04

// next item, relative viability requested
Exercise: # query: relative viability | item Clc1ccc(Nc2nnc(Cc3ccncc3)c3ccccc23)cc1 [Vatalanib] + NC(=O)Nc1cc(-c2cccc(F)c2)sc1C(=O)N[C@H]1CCCNC1 [AZD7762] (partner 0.2 µM) | system: HCC-366
Solution: 0.194

###

System: NCI-H2405
method-description: relative viability (nuclei count vs DMSO), 5 days (fraction); higher = more cells survive
condition-set: first compound 0.04 µM
Quick reference: relative viability of the listed items.
Respond numerically, and do not add a unit to the figure.

Exercise: Find the recorded relative viability belonging to C[C@@H]1CN(CC(=O)Nc2ccc3c(c2)Cc2cccc(-c4cc(=O)cc(N5CCOCC5)o4)c2S3)C[C@H](C)O1 + CC1(C)CCC(c2ccc(Cl)cc2)=C(CN2CCN(c3ccc(C(=O)NS(=O)(=O)c4ccc(N[C@H](CCN5CCOCC5)CSc5ccccc5)c(S(=O)(=O)C(F)(F)F)c4)cc3)CC2)C1 [Navitoclax] (partner 0.5 µM) and report it.
Solution: 1.02

###

System: HARA
method-description: relative viability (nuclei count vs DMSO), 5 days (fraction); higher = more cells survive
condition-set: first compound 0.8 µM
Quick reference: relative viability of the listed items.
Respond numerically, and do not add a unit to the figure.

molecule	assay-target	result-value
CCCCCCCCCCCC1=C(O)C(=O)C=C(O)C1=O [Embelin] + CC(C)C[C@H](NC(=O)[C@H](Cc1ccccc1)NC(=O)c1cnccn1)B(O)O [Bortezomib] (partner 0.002 µM)	HARA	1.25
CCCCCCCCCCCC1=C(O)C(=O)C=C(O)C1=O [Embelin] + COc1cccc2cc(-c3nc([C@H]4CC[C@H](C(=O)O)CC4)n4ncnc(N)c34)[nH]c12 [OSI-027] (partner 0.5 µM)	HARA	0.701
CCCCCCCCCCCC1=C(O)C(=O)C=C(O)C1=O [Embelin] + O=C(c1cc(Cc2n[nH]c(=O)c3ccccc23)ccc1F)N1CCN(C(=O)C2CC2)CC1 [Olaparib] (partner 8 µM)	HARA	0.734
CCCCCCCCCCCC1=C(O)C(=O)C=C(O)C1=O [Embelin] + Nc1ncn([C@H]2C[C@H](O)[C@@H](CO)O2)c(=O)n1 [Decitabine] (partner 2 µM)	HARA	0.549

Exercise: Find the recorded relative viability belonging to CCCCCCCCCCCC1=C(O)C(=O)C=C(O)C1=O [Embelin] + CC(=O)Nc1cccc(-n2c(=O)n(C3CC3)c(=O)c3c(Nc4ccc(I)cc4F)n(C)c(=O)c(C)c32)c1 [Trametinib] (partner 0.02 µM) and report it.
Solution: 1.05

###

Test system: COR-L 105
method-description: relative viability (nuclei count vs DMSO), 5 days (fraction); higher = more cells survive
condition-set: first compound 0.04 µM
attribute-measured: relative viability
Respond numerically, and do not add a unit to the figure.

Previously resolved entries follow.
compound	relative viability
C[C@@H]1CN(CC(=O)Nc2ccc3c(c2)Cc2cccc(-c4cc(=O)cc(N5CCOCC5)o4)c2S3)C[C@H](C)O1 + CC(C)C[C@H](NC(=O)[C@H](Cc1ccccc1)NC(=O)c1cnccn1)B(O)O [Bortezomib] (partner 0.002 µM)	0.741
COc1cc(N2CCC(C(N)=O)CC2)ccc1Nc1nc(N)c(Cl)c(Nc2ccccc2S(=O)(=O)C(C)C)n1 [HG-5-88-01] + Cc1nc(Nc2ncc(C(=O)Nc3c(C)cccc3Cl)s2)cc(N2CCN(CCO)CC2)n1 [Dasatinib] (partner 0.075 µM)	0.305
Clc1ccc(Nc2nnc(Cc3ccncc3)c3ccccc23)cc1 [Vatalanib] + Nc1nc2[nH]cc(CCc3ccc(C(=O)N[C@@H](CCC(=O)O)C(=O)O)cc3)c2c(=O)[nH]1 [Pemetrexed] (partner 0.2 µM)	1.34

// next item, relative viability requested
Exercise: Find the recorded relative viability belonging to COc1cc(N2CCC(C(N)=O)CC2)ccc1Nc1nc(N)c(Cl)c(Nc2ccccc2S(=O)(=O)C(C)C)n1 [HG-5-88-01] + CC1(C)CCC(c2ccc(Cl)cc2)=C(CN2CCN(c3ccc(C(=O)NS(=O)(=O)c4ccc(N[C@H](CCN5CCOCC5)CSc5ccccc5)c(S(=O)(=O)C(F)(F)F)c4)cc3)CC2)C1 [Navitoclax] (partner 0.5 µM) and report it.
Solution: 0.644

###

Quick reference: relative viability of the listed items.
Test system: NCI-H2087
method-description: relative viability (nuclei count vs DMSO), 5 days (fraction); higher = more cells survive
condition-set: first compound 4 µM
Respond numerically, and do not add a unit to the figure.

molecule	assay-target	relative viability
Clc1ccc(Nc2nnc(Cc3ccncc3)c3ccccc23)cc1 [Vatalanib] + CCNC(=O)c1noc(-c2cc(C(C)C)c(O)cc2O)c1-c1ccc(CN2CCOCC2)cc1 [Luminespib] (partner 0.01 µM)	NCI-H2087	0.159
COc1cc(N2CCC(C(N)=O)CC2)ccc1Nc1nc(N)c(Cl)c(Nc2ccccc2S(=O)(=O)C(C)C)n1 [HG-5-88-01] + C[C@@H](Oc1cc(-c2cnn(C3CCNCC3)c2)cnc1N)c1c(Cl)ccc(F)c1Cl [Crizotinib] (partner 1 µM)	NCI-H2087	0.527
COc1cc(N2CCC(C(N)=O)CC2)ccc1Nc1nc(N)c(Cl)c(Nc2ccccc2S(=O)(=O)C(C)C)n1 [HG-5-88-01] + CS(=O)(=O)N1CCN(Cc2cc3nc(-c4cccc5[nH]ncc45)nc(N4CCOCC4)c3s2)CC1 [Pictilisib] (partner 1 µM)	NCI-H2087	0.9
Clc1ccc(Nc2nnc(Cc3ccncc3)c3ccccc23)cc1 [Vatalanib] + O=C(CCCCCCC(=O)Nc1ccccc1)NO [Vorinostat] (partner 1 µM)	NCI-H2087	0.533
Clc1ccc(Nc2nnc(Cc3ccncc3)c3ccccc23)cc1 [Vatalanib] + Cc1nc(Nc2ncc(C(=O)Nc3c(C)cccc3Cl)s2)cc(N2CCN(CCO)CC2)n1 [Dasatinib] (partner 0.075 µM)	NCI-H2087	0.884
Clc1ccc(Nc2nnc(Cc3ccncc3)c3ccccc23)cc1 [Vatalanib] + Cc1nc(NC(=O)N2CCC[C@H]2C(N)=O)sc1-c1ccnc(C(C)(C)C(F)(F)F)c1 [Alpelisib] (partner 2 µM)	NCI-H2087	1.1
C[C@@H]1CN(CC(=O)Nc2ccc3c(c2)Cc2cccc(-c4cc(=O)cc(N5CCOCC5)o4)c2S3)C[C@H](C)O1 + NC(=O)Nc1cc(-c2cccc(F)c2)sc1C(=O)N[C@H]1CCCNC1 [AZD7762] (partner 0.2 µM)	NCI-H2087	0.954
C[C@@H]1CN(CC(=O)Nc2ccc3c(c2)Cc2cccc(-c4cc(=O)cc(N5CCOCC5)o4)c2S3)C[C@H](C)O1 + Nc1ncn([C@H]2C[C@H](O)[C@@H](CO)O2)c(=O)n1 [Decitabine] (partner 2 µM)	NCI-H2087	0.254

// next item, relative viability requested
Exercise: Find the recorded relative viability belonging to C[C@@H]1CN(CC(=O)Nc2ccc3c(c2)Cc2cccc(-c4cc(=O)cc(N5CCOCC5)o4)c2S3)C[C@H](C)O1 + Cc1nc(Nc2ncc(C(=O)Nc3c(C)cccc3Cl)s2)cc(N2CCN(CCO)CC2)n1 [Dasatinib] (partner 0.075 µM) and report it.
Solution: 0.743
